biological target: BChE (source equine serum) (Equus caballus, UniProt P81908); experiment: biochemical
Sequence (P81908 whole entry): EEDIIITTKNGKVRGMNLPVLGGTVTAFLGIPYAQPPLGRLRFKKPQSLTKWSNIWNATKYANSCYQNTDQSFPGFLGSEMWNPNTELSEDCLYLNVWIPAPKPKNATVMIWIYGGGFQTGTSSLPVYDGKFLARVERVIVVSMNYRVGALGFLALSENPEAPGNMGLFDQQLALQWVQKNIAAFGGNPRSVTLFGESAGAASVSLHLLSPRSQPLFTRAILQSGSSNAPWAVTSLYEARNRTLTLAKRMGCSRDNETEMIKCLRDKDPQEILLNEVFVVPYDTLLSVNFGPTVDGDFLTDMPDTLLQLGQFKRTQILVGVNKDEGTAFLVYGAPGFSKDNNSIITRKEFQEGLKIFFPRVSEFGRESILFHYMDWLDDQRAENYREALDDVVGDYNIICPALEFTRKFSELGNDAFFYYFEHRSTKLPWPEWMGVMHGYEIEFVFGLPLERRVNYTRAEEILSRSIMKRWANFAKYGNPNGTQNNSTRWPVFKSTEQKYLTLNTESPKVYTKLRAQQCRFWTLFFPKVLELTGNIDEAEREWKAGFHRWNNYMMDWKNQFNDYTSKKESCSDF
Recorded IC50 values for a group of compounds are listed next.
measurement-type: IC50

* COc1ccc(C/N=C(/C)[C@H]2CC[C@H]3[C@@H]4CCC5=CC(=O)CC[C@]5(C)[C@H]4CC[C@]23C)cc1 [AN1] | 43.3 µM
* C/C(=N/Cc1ccccc1)[C@H]1CC[C@H]2[C@@H]3CCC4=CC(=O)CC[C@]4(C)[C@H]3CC[C@]12C [AN5] | 63 µM
* C/C(=N/Cc1ccc(C)cc1)[C@H]1CC[C@H]2[C@@H]3CCC4=CC(=O)CC[C@]4(C)[C@H]3CC[C@]12C [AN2] | 138 µM
* COc1ccc(C/N=C(/C)[C@H]2CC[C@H]3[C@@H]4CCC5=CC(=O)CC[C@]5(C)[C@H]4CC[C@]23C)cc1OC [AN3] | 112 µM
* C/C(=N/Cc1ccc(Cl)cc1)[C@H]1CC[C@H]2[C@@H]3CCC4=CC(=O)CC[C@]4(C)[C@H]3CC[C@]12C [AN4] | 149 µM

----------
Recorded inhibition at 250 µg/mL values for a group of molecules are listed next.
target: BChE (source equine serum) (Equus caballus); construct: from tissue; host or cells: equine serum; assay: biochemical; conditions: read-out: % BChE Inhibition
measurement-type: inhibition at 250 µg/mL (%)

- C/C(=N/Cc1ccc(Cl)cc1)[C@H]1CC[C@H]2[C@@H]3CCC4=CC(=O)CC[C@]4(C)[C@H]3CC[C@]12C: 63.1
- C/C(=N/Cc1ccccc1)[C@H]1CC[C@H]2[C@@H]3CCC4=CC(=O)CC[C@]4(C)[C@H]3CC[C@]12C: 71.4
- C/C(=N/Cc1ccc(C)cc1)[C@H]1CC[C@H]2[C@@H]3CCC4=CC(=O)CC[C@]4(C)[C@H]3CC[C@]12C: 74.1
- COc1ccc(C/N=C(/C)[C@H]2CC[C@H]3[C@@H]4CCC5=CC(=O)CC[C@]5(C)[C@H]4CC[C@]23C)cc1OC: 64.3
- COc1ccc2c3c1O[C@H]1C[C@@H](O)C=C[C@@]31CCN(C)C2 [Galantamine, reference compound]: 77.4
- COc1ccc(C/N=C(/C)[C@H]2CC[C@H]3[C@@H]4CCC5=CC(=O)CC[C@]5(C)[C@H]4CC[C@]23C)cc1: 71.9

----------
Recorded inhibition at 500 µg/mL values for a group of compounds are listed next.
biological target: BChE (source equine serum) (Equus caballus); construct: from tissue; host or cells: equine serum; assay: biochemical; details: read-out: % BChE Inhibition
measurement-type: inhibition at 500 µg/mL (%)

- C/C(=N/Cc1ccccc1)[C@H]1CC[C@H]2[C@@H]3CCC4=CC(=O)CC[C@]4(C)[C@H]3CC[C@]12C [AN5]: 75.8
- COc1ccc(C/N=C(/C)[C@H]2CC[C@H]3[C@@H]4CCC5=CC(=O)CC[C@]5(C)[C@H]4CC[C@]23C)cc1OC [AN3]: 81.8
- COc1ccc(C/N=C(/C)[C@H]2CC[C@H]3[C@@H]4CCC5=CC(=O)CC[C@]5(C)[C@H]4CC[C@]23C)cc1 [AN1]: 80.4
- COc1ccc2c3c1O[C@H]1C[C@@H](O)C=C[C@@]31CCN(C)C2 [Galantamine, reference compound]: 84.4
- C/C(=N/Cc1ccc(Cl)cc1)[C@H]1CC[C@H]2[C@@H]3CCC4=CC(=O)CC[C@]4(C)[C@H]3CC[C@]12C [AN4]: 64.7
- C/C(=N/Cc1ccc(C)cc1)[C@H]1CC[C@H]2[C@@H]3CCC4=CC(=O)CC[C@]4(C)[C@H]3CC[C@]12C [AN2]: 72

----------
Biological target: BChE (source equine serum) (Equus caballus)
Construct: from tissue; host or cells: equine serum
Assay: biochemical
Conditions: read-out: % BChE Inhibition
Description: The cholinesterase inhibitory potentials of our synthesized compounds were evaluated against cholinesterase enzymes (AChE/BChE). […] The yellowish color product indicates the hydrolysis of ATChI and BTChI substrates by respective enzymes, which were analyzed at 412 nm using a UV-visible spectrophotometer. […] Using a double beam spectrophotometer, the sample absorbance was measured for 4 minutes at 412 nm beside the time of reaction. […]
measurement-type: inhibition at 125 µg/mL (%)

- C/C(=N/Cc1ccc(C)cc1)[C@H]1CC[C@H]2[C@@H]3CCC4=CC(=O)CC[C@]4(C)[C@H]3CC[C@]12C: 52.9
- COc1ccc2c3c1O[C@H]1C[C@@H](O)C=C[C@@]31CCN(C)C2 [Galantamine, reference compound]: 72.9
- C/C(=N/Cc1ccccc1)[C@H]1CC[C@H]2[C@@H]3CCC4=CC(=O)CC[C@]4(C)[C@H]3CC[C@]12C: 65.9
- COc1ccc(C/N=C(/C)[C@H]2CC[C@H]3[C@@H]4CCC5=CC(=O)CC[C@]5(C)[C@H]4CC[C@]23C)cc1OC: 59.9
- C/C(=N/Cc1ccc(Cl)cc1)[C@H]1CC[C@H]2[C@@H]3CCC4=CC(=O)CC[C@]4(C)[C@H]3CC[C@]12C: 56.9
- COc1ccc(C/N=C(/C)[C@H]2CC[C@H]3[C@@H]4CCC5=CC(=O)CC[C@]5(C)[C@H]4CC[C@]23C)cc1: 68.3

----------
Recorded inhibition at 125 µg/mL values for a group of molecules are listed next.
target: AChE (source Electric eel) (Electrophorus electricus); construct: from tissue; assay: biochemical; settings: read-out: % AChE Inhibition
measurement-type: inhibition at 125 µg/mL (%)

- COc1ccc(C/N=C(/C)[C@H]2CC[C@H]3[C@@H]4CCC5=CC(=O)CC[C@]5(C)[C@H]4CC[C@]23C)cc1OC: 62.9
- COc1ccc(C/N=C(/C)[C@H]2CC[C@H]3[C@@H]4CCC5=CC(=O)CC[C@]5(C)[C@H]4CC[C@]23C)cc1: 69.4
- C/C(=N/Cc1ccc(Cl)cc1)[C@H]1CC[C@H]2[C@@H]3CCC4=CC(=O)CC[C@]4(C)[C@H]3CC[C@]12C: 52.7
- C/C(=N/Cc1ccc(C)cc1)[C@H]1CC[C@H]2[C@@H]3CCC4=CC(=O)CC[C@]4(C)[C@H]3CC[C@]12C: 57.4
- C/C(=N/Cc1ccccc1)[C@H]1CC[C@H]2[C@@H]3CCC4=CC(=O)CC[C@]4(C)[C@H]3CC[C@]12C: 59.7

----------
biological target: AChE (source Electric eel) (Electrophorus electricus); construct: from tissue; assay: biochemical; conditions: read-out: % AChE Inhibition
Recorded inhibition at 62.5 µg/mL values for a group of molecules are listed next.
measurement-type: inhibition at 62.5 µg/mL (%)

• COc1ccc(C/N=C(/C)[C@H]2CC[C@H]3[C@@H]4CCC5=CC(=O)CC[C@]5(C)[C@H]4CC[C@]23C)cc1OC = 50.7
• C/C(=N/Cc1ccc(C)cc1)[C@H]1CC[C@H]2[C@@H]3CCC4=CC(=O)CC[C@]4(C)[C@H]3CC[C@]12C = 48.3
• C/C(=N/Cc1ccc(Cl)cc1)[C@H]1CC[C@H]2[C@@H]3CCC4=CC(=O)CC[C@]4(C)[C@H]3CC[C@]12C = 47
• C/C(=N/Cc1ccccc1)[C@H]1CC[C@H]2[C@@H]3CCC4=CC(=O)CC[C@]4(C)[C@H]3CC[C@]12C = 50.4

----------
target: AChE (source Electric eel) (Electrophorus electricus); test: biochemical
Lab note: anything with IC50 below 100 µM is marked t; values at 100 µM or higher are marked f.

* C/C(=N/Cc1ccc(C)cc1)[C@H]1CC[C@H]2[C@@H]3CCC4=CC(=O)CC[C@]4(C)[C@H]3CC[C@]12C | f
* C/C(=N/Cc1ccc(Cl)cc1)[C@H]1CC[C@H]2[C@@H]3CCC4=CC(=O)CC[C@]4(C)[C@H]3CC[C@]12C | f
* C/C(=N/Cc1ccccc1)[C@H]1CC[C@H]2[C@@H]3CCC4=CC(=O)CC[C@]4(C)[C@H]3CC[C@]12C | f
* COc1ccc(C/N=C(/C)[C@H]2CC[C@H]3[C@@H]4CCC5=CC(=O)CC[C@]5(C)[C@H]4CC[C@]23C)cc1 | t
* COc1ccc(C/N=C(/C)[C@H]2CC[C@H]3[C@@H]4CCC5=CC(=O)CC[C@]5(C)[C@H]4CC[C@]23C)cc1OC | f

----------
biological target: AChE (source Electric eel) (Electrophorus electricus, UniProt O42275); construct: from tissue; assay: biochemical; conditions: read-out: % AChE Inhibition
Sequence (O42275 24-633): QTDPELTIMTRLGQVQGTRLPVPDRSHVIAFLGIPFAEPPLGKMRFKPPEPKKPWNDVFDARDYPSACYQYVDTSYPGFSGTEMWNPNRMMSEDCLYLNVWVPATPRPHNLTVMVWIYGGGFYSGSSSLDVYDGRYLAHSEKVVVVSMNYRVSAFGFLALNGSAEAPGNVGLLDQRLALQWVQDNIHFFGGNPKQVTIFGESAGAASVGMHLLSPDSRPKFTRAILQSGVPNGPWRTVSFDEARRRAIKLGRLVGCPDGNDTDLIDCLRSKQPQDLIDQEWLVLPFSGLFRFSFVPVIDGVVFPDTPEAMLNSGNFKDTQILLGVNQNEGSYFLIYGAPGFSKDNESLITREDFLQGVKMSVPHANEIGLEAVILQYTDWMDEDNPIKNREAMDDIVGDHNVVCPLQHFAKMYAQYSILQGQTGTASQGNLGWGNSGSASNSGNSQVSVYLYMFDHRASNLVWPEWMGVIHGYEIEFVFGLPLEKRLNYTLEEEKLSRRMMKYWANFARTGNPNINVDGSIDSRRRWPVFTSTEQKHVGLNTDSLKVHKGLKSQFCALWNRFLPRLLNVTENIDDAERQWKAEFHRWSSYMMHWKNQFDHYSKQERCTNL
Recorded inhibition at 1000 µg/mL values for a group of compounds are listed next.
measurement-type: inhibition at 1000 µg/mL (%)

• COc1ccc(C/N=C(/C)[C@H]2CC[C@H]3[C@@H]4CCC5=CC(=O)CC[C@]5(C)[C@H]4CC[C@]23C)cc1 = 88.9
• COc1ccc(C/N=C(/C)[C@H]2CC[C@H]3[C@@H]4CCC5=CC(=O)CC[C@]5(C)[C@H]4CC[C@]23C)cc1OC = 82.8
• C/C(=N/Cc1ccc(Cl)cc1)[C@H]1CC[C@H]2[C@@H]3CCC4=CC(=O)CC[C@]4(C)[C@H]3CC[C@]12C = 70
• C/C(=N/Cc1ccc(C)cc1)[C@H]1CC[C@H]2[C@@H]3CCC4=CC(=O)CC[C@]4(C)[C@H]3CC[C@]12C = 75.7
• C/C(=N/Cc1ccccc1)[C@H]1CC[C@H]2[C@@H]3CCC4=CC(=O)CC[C@]4(C)[C@H]3CC[C@]12C = 83.5

Entry source: paper PMC12645137
